All figures here come from patent US8227618B2.

# Experimental System: mouse NPY Y5 receptor (Mus musculus)
# Sequence (O70342 1-466): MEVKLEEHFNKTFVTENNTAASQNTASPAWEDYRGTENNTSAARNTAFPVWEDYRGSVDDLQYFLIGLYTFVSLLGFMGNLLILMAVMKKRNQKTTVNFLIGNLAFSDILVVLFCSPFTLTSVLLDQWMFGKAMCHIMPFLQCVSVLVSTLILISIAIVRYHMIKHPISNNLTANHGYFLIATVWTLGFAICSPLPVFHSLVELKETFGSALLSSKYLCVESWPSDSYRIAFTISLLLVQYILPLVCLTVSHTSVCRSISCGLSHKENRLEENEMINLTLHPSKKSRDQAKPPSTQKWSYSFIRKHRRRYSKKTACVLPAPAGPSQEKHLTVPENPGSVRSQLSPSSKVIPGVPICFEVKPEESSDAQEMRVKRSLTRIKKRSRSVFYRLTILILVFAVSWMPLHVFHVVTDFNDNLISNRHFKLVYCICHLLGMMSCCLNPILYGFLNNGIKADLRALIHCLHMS
# pIC50 per entry
Keep in mind that pIC50 stands for -log10 of concentration in molar terms.

CC(C)(C)S(=O)(=O)NC[C@H]1CC[C@H](Nc2nc3ccc(C(F)(F)F)cc3s2)CC1: 9.41
CC(C)(C)S(=O)(=O)NC[C@H]1CC[C@H](Nc2nc3cc(F)ccc3o2)CC1: 9.07
CC(C)S(=O)(=O)NC[C@H]1CC[C@H](Nc2ccc(C(F)(F)F)cn2)CC1: 9.15
CCS(=O)(=O)NC[C@H]1CC[C@H](Nc2nc3ccccc3o2)CC1: 8.33
CC(C)(C)S(=O)(=O)NC[C@H]1CC[C@H](Nc2ccc3ccccc3n2)CC1: 8.60
CC(C)S(=O)(=O)NC[C@H]1CC[C@H](Nc2nc3cc(F)ccc3s2)CC1: 9.92
CCS(=O)(=O)N[C@H]1CC[C@H](CNc2ccc(S(=O)(=O)c3ccc(F)cc3)cc2)CC1: 7.96
CC(C)S(=O)(=O)NC[C@H]1CC[C@H](Nc2nc3cccc(F)c3s2)CC1: 9.92

Input line: What reported pIC50 corresponds to CC1CC(C)CN(c2cccc(NC[C@H]3CC[C@H](NS(=O)(=O)C(C)(C)C)CC3)c2)C1 (some centres unmarked) on mouse NPY Y5 receptor (Mus musculus)?
Output line: 10.00

Input line: What reported pIC50 corresponds to `CC(C)S(=O)(=O)NC[C@H]1CC[C@H](Nc2ccc(OC3CCCC3)nn2)CC1` on mouse NPY Y5 receptor (Mus musculus)?
Output line: 9.00

Input line: What reported pIC50 corresponds to `CC(C)S(=O)(=O)NC[C@H]1CC[C@H](Nc2nc3cc(Cl)ccc3s2)CC1` on mouse NPY Y5 receptor (Mus musculus)?
Output line: 9.77

====

# Experimental System: NPY Y5 receptor (Mus musculus, UniProt O70342)
# Construct: from tissue; host or cells: brain of living male C57BL/6J mice
# Sequence (O70342 1-466): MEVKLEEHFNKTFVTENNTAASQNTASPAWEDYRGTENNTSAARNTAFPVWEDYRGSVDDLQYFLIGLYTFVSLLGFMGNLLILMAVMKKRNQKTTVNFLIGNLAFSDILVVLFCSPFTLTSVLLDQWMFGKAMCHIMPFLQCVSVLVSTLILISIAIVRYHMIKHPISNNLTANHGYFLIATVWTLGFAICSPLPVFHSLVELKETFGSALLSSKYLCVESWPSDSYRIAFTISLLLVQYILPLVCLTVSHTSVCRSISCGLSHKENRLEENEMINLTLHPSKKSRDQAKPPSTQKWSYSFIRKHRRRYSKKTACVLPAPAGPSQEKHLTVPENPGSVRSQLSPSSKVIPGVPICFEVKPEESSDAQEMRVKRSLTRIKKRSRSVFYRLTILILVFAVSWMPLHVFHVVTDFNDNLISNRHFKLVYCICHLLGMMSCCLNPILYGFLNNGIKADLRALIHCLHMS
# Assay Text: Inhibition of Y5 agonist-induced food intake in mice
# Type: in vivo, C57BL/6J mice
# Condition Parameters: 4 hours after dosing; rows without asterisk (6 mg/kg per text)
Param threshold (70%) applies to Inhibition ratio of Y5 agonist-induced food intake; output Satisfied when value >= threshold, Not satisfied when value < threshold.

CC(C)(C)S(=O)(=O)NC[C@H]1CC[C@H](Nc2ccn(-c3ccccc3F)n2)CC1: Satisfied
Cn1c(=O)oc2cc(NC[C@H]3CC[C@H](NS(=O)(=O)C(C)(C)C)CC3)cc(F)c21: Satisfied
CC(C)S(=O)(=O)NC[C@H]1CC[C@H](Nc2nc3cccc(F)c3s2)CC1: Satisfied
CC(C)S(=O)(=O)NC[C@H]1CC[C@H](Nc2nc3cc(Cl)ccc3s2)CC1: Satisfied
CCS(=O)(=O)NC[C@H]1CC[C@H](Nc2nc3ccccc3s2)CC1: Not satisfied

Input line: # check: Inhibition ratio of Y5 agonist-induced food intake of `CC(C)S(=O)(=O)N[C@H]1CC[C@H](CNc2cc(F)cc(N3CCOCC3)c2)CC1` is greater than or equal to 70%
Output line: Not satisfied
